assay: Compound cytotoxicity measured by an ATP content assay as a counter-screen for lead compounds in human iPSC derived neural progenitor cells (hNPCs); details: human iPSC-derived NPC viability, ATP luminescence; series mostly up to 46.1 µM
Results filed as inconclusive are left out. Activity calls are given as the source filed them. Calls come from the whole dose curve; as a rule, active = well fitted cell-killing curve with a large enough effect; inconclusive = small, poorly fitted or top-dose-only effect; inactive = flat fitted curve, though single readings scatter.
Outcome codes: Yes = active, No = inactive

MOLECULE: Nc1cc(C(F)(F)F)ccc1S
DISCRETE_LABEL: Yes
//
MOLECULE: Nc1ncnc2c1ncn2[C@@H]1O[C@@H](CO)[C@H](O)[C@H]1O
DISCRETE_LABEL: No
//
MOLECULE: CCCS(=O)c1ccc2nc(NC(=O)OC)[nH]c2c1 (configuration not stated)
DISCRETE_LABEL: No
//
MOLECULE: O=C(O)c1ccccc1Nc1cccc(C(F)(F)F)c1
DISCRETE_LABEL: No
//
MOLECULE: OCc1ccc(-c2ccc(-c3ccc(CO)s3)o2)s1
DISCRETE_LABEL: Yes
//
MOLECULE: COc1ccc(-c2cc(=S)ss2)cc1
DISCRETE_LABEL: No
//
MOLECULE: O[C@@H](COc1cccc2ncccc12)CN1CCN(C2c3ccccc3[C@@H]3[C@H](c4ccccc42)C3(F)F)CC1 (some centres not stated)
DISCRETE_LABEL: No
//
MOLECULE: CC(C(=O)O)c1ccc2c(c1)[nH]c1ccc(Cl)cc12 (configuration not stated)
DISCRETE_LABEL: No
//
MOLECULE: O=C(Nc1ccc(C(=O)O)c(O)c1)c1ccccc1
DISCRETE_LABEL: No
//
MOLECULE: Oc1cc(O)cc(/C=C/c2ccc(O)c(O)c2)c1
DISCRETE_LABEL: Yes
//
MOLECULE: COc1cc(NC(C)CCCN)c2ncccc2c1 (configuration not stated)
DISCRETE_LABEL: No
//
MOLECULE: COc1cccc(-c2cc(=O)c3ccccc3o2)c1N
DISCRETE_LABEL: Yes
